List of sensor-assay potency score (higher = more potent) values.
- Measured On: ZNF219
- Assay Remarks: pooled miR-30 sensor sort-seq; sequence = guide strand
- Condition Notes: shRNA
Value Kind: sensor-assay potency score (higher = more potent)

Input Sequence: TATCGCTGCAGATCCAGCTCGC
Observed Measurement: 0.347
//
Input Sequence: TCCAACTCCAGCAACAGGCGTG
Observed Measurement: -0.967
//
Input Sequence: TTGCCTTTGCAGTAGGGGCAAC
Observed Measurement: -1.2
//
Input Sequence: TCGCAGATGCACTTTGAGGTGA
Observed Measurement: -0.383
//
Input Sequence: TTTATTGGGGACACGACTCTGC
Observed Measurement: 0.537
//
Input Sequence: TACTTGAGCGAGCCGGACTGGG
Observed Measurement: -1.26
//
Input Sequence: TTGAGGTGATGTGCTGAGCGGA
Observed Measurement: -0.983
//
Input Sequence: TGTAGGTGATACTTGAGCGAGC
Observed Measurement: -0.911

---

- Measured On: ZNF322A
- Assay Remarks: pooled miR-30 sensor sort-seq; sequence = guide strand
- Condition Notes: shRNA
Documented sensor-assay potency score (higher = more potent) across a set of sequences
Value Kind: sensor-assay potency score (higher = more potent)

Input Sequence: TATGAGTCAACTAACTATGAGA
Observed Measurement: -0.783
//
Input Sequence: TTTTTCACCAATGTGTACTGTC
Observed Measurement: 0.583
//
Input Sequence: TTCACCAATGTGTACTGTCTGA
Observed Measurement: -0.693
//
Input Sequence: TAAGACAGGAGCTTCTACCAAA
Observed Measurement: -0.88

---

- Measured On: GNAQ
- Assay Remarks: pooled miR-30 sensor sort-seq; sequence = guide strand
- Condition Notes: shRNA
Please enter True where sensor-assay potency score (higher = more potent) is greater than or equal to -0.5, and False where it is lower.

Input Sequence: TATCTTCATCAGAGTATCCTGA
Measured On: GNAQ
Group Label: True

Input Sequence: TTGTGCATGAGCCTTATTGTGC
Measured On: GNAQ
Group Label: False

Input Sequence: TTTAAGAACAGAATAACCGAGG
Measured On: GNAQ
Group Label: True

Input Sequence: TCTAAGCACATCTTGTTGCGTA
Measured On: GNAQ
Group Label: True

Input Sequence: TACTCTTGCCACTCTCTCCTGT
Measured On: GNAQ
Group Label: True

Input Sequence: TTGTATGGGATCTTGAGTGTGT
Measured On: GNAQ
Group Label: True

Input Sequence: TTGATAAACGTACTCTTGCCAC
Measured On: GNAQ
Group Label: False

Input Sequence: TCGAACTCTAAGCACATCTTGT
Measured On: GNAQ
Group Label: False

Input Sequence: TCGTCTATCATAGCATTCCTGG
Measured On: GNAQ
Group Label: False

---

- Measured On: MIP
- Assay Remarks: pooled miR-30 sensor sort-seq; sequence = guide strand
- Condition Notes: shRNA
Quick reference: sensor-assay potency score (higher = more potent) of the listed items.
Value Kind: sensor-assay potency score (higher = more potent)

Input Sequence: TCTCTCAGAAATACTCTTGAGC
Observed Measurement: -0.614

Input Sequence: TAACGCTATACAGCACAGCGGC
Observed Measurement: -1.18

Input Sequence: TCGTATGTGGCAAAGATGCAGA
Observed Measurement: -0.993

Input Sequence: TTGTCCATTGGAGACATCGGGT
Observed Measurement: -0.903

Input Sequence: TTCCTCGGACAGCAGGTGGGGT
Observed Measurement: -1.18

Input Sequence: TGTCCATTGGAGACATCGGGTT
Observed Measurement: -1.24

Input Sequence: TCAGAAATACTCTTGAGCCGGG
Observed Measurement: 0.442

Input Sequence: TTGAGTGCTAGGTTTCCTCGGA
Observed Measurement: -0.0163

Input Sequence: TTCAGTTCAACAGGTTCCCCTG
Observed Measurement: -0.987
